system: anti-CD28 scFv; test: Phage binding ELISA (panning) of clonal phage on anti-CD28 scFv, with or without CD28 soluble protein; conditions: clonal phage supernatant; background (no anti-CD28 scFv signal)
Item-by-item account of Phage binding ELISA Backgroud signal
readout.kind: Phage binding ELISA Backgroud signal

| substance | result |
| --- | --- |
| Phage-415 (MDWCPMYMWHKCFH) | 0.099 |
| Phage-405 (MDWCPMSMWAFCFD) | 0.102 |
| Phage-430 (IHLCHWVPWIKCSH) | 2.516 |
| Phage-449 (MVDCPLISFDECLA) | 0.246 |
| Phage-451 (MDWCPRFWWHECYA) | 0.246 |
| Phage-394 (MDWCPRYMWSDCFF) | 0.082 |
| Phage-381 (MAWCPRILWHQCFN) | 0.113 |

###

Item-by-item account of Phage binding ELISA Backgroud signal
tested on: anti-CD28 scFv; test: Phage binding ELISA (panning) of clonal phage on anti-CD28 scFv, with or without CD28 soluble protein; conditions: clonal phage supernatant; background signal
readout.kind: Phage binding ELISA Backgroud signal

| substance | assay.target | readout.number |
| --- | --- | --- |
| Phage-303 (MDWCPRYLWTECFS) | anti-CD28 scFv | 0.074 |
| Phage-221 (TTWCPTSMWLHCFD) | anti-CD28 scFv | 0.096 |
| Phage-71 (MDWCPRYLWHECFA) | anti-CD28 scFv | 0.071 |
| Phage-195 (MDWCPKHMWFMCFN) | anti-CD28 scFv | 0.101 |
| Phage-72 (MFWCPTTMWNRCFT) | anti-CD28 scFv | 0.111 |
| Phage-313 (MDWCPRSLWNYCFN) | anti-CD28 scFv | 0.076 |
| Phage-232 (MDWCARFVGYGCLD) | anti-CD28 scFv | 0.948 |

###

test system: anti-CD28 scFv; experiment: Phage binding ELISA (panning) of clonal phage on anti-CD28 scFv, with or without CD28 soluble protein; conditions: clonal phage supernatant; background signal
readout.kind: Phage binding ELISA Backgroud signal

| substance | readout.number |
| --- | --- |
| Phage-82 (MDWCPRDLWTECFA) | 0.060 |
| Phage-368 (MSWCPPYLWTVCYN) | 0.176 |
| Phage-220 (FDFCPTTMWTYCQH) | 0.084 |
| Phage-321 (MDWCPRDLWYVCFA) | 0.095 |
| Phage-171 (MNWCPSHLWHMCYF) | 0.195 |
| Phage-73 (MDWCPRALWHECFN) | 0.071 |
| Phage-247 (MDWCPRFMWAECFN) | 0.073 |
| Phage-61 (MVSCPTTMWNRCFN) | 0.079 |
| Phage-248 (MDWCPRNMWHHCFD) | 0.205 |
| Phage-197 (MDWCPRHMWYECFF) | 0.129 |
| Phage-230 (APWCQIISGLECLT) | 0.080 |
| Phage-350 (MDWCPWFLWNECFN) | 0.158 |
| Phage-269 (DSFCTWSAWQECGR) | 0.072 |
| Phage-266 (VTSCPTTMWNRCFS) | 0.396 |
